The measurements presented in this section are drawn from PubChem BioAssay AID1508600.

Assay: Components of the Cytosolic LPS Sensing Pathway: Gene Identification via Genome-wide siRNA Screen
Conditions: RAW264.7 macrophages, IL-1a HTRF, actives lie on both sides, screened at 100 nM (by protocol), cells primed 5 h with Pam3CSK4 first
The campaign covered roughly 53,000 sequences. About 3,700 (7%) were called active.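 How the source made its calls: active means gene knockdowns whose robust z-score for IL-1 alpha signal is at least 2 or at most -2, so actives lie on both sides; inactive means the rest.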 This is one part of a sample in which actives are shown more often than they occur.
Classes used: yes (active), no (inactive)

{"sequence_code": "GCAUCGAAAAUCUUUCCAATT against Fibcd1", "class_assignment": "no"}
{"sequence_code": "GGGCAUGAAAGAAUUCUUATT against D130040H23Rik", "class_assignment": "yes"}
{"sequence_code": "GGAGAUCUCACCGACAUUGTT against Cpt1c", "class_assignment": "no"}
{"sequence_code": "GGCAAUAGCUACACCUUCATT against Csf1r", "class_assignment": "no"}
{"sequence_code": "GGAGAAGCCAGGAGUUUACTT against Klk6", "class_assignment": "no"}
{"sequence_code": "GCAGGAACGUGAGGACCAUTT against Snip1", "class_assignment": "no"}
{"sequence_code": "GGGUUUGAACUGGUGAUUGTT against Cenpp", "class_assignment": "no"}
{"sequence_code": "GGACCUGGAGUAUAUGCUGTT against Mgat4f", "class_assignment": "no"}
{"sequence_code": "GGUUACGAAAAGCUGCCUUTT against Ints14", "class_assignment": "no"}
{"sequence_code": "GGACCAGCCAUACCUGUGATT against Ndufa7", "class_assignment": "no"}
{"sequence_code": "GGAGACUUCAGUGCCUCUUTT against Slc16a11", "class_assignment": "yes"}
{"sequence_code": "GCAGAUGUACUCUAAGGGUTT against Adam23", "class_assignment": "no"}
